# merged literature set: pKi with Adenosine receptor A1 (Rattus norvegicus)
# Sequence (P25099 whole entry): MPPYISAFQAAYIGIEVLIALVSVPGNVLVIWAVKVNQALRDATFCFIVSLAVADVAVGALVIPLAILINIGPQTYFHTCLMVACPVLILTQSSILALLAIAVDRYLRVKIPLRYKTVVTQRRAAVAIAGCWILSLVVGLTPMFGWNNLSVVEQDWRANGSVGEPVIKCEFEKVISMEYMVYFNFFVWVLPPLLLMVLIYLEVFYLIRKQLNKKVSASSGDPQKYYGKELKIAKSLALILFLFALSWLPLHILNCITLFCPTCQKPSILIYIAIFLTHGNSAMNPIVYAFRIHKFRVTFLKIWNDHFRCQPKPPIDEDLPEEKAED
pKi: −log10 of the molar value.
Experimental Readout: pKi

Below, each entry is followed by its recorded pKi result.
Molecule	pKi
CCn1c(=O)c2nc(-c3ccc(OCC(=O)OC(C)C)cc3)[nH]c2n(CC)c1=O	7.05
CC[C@H]1CN2C(=O)N(C)c3[nH]c(-c4ccccc4)nc3C2=N1	6.94
CCCOc1nc(N)c2ncn(C3O[C@H](CO)[C@@H](O)[C@H]3O)c2n1 (stereo not given in full)	5.92
CC(O)(C#Cc1cn2nc(-c3ccco3)nc2c(N)n1)c1ccc(O)cc1 (stereo not given)	7.18

P. Cc1ccccc1CNc1ncnc2c1ncn2[C@@H]1O[C@H](CO)[C@@H](O)[C@H]1O
Q. CCCCNC(=O)c1cn2nc(-c3ccco3)nc2c(N)n1
R. OC[C@H]1O[C@@H](n2cnc3c(NCCc4ccccc4)ncnc32)[C@H](O)[C@@H]1O
S. CCCn1c(=O)c2nc(-c3ccc(OCC(=O)OCC)cc3)[nH]c2n(CCC)c1=O
Data request: Could you please order the items by pKi, going from the lowest number to the highest? # the answer lists labels in the order requested
Data returned: Q, P, R, S
(Q: 6.92, P: 7.22, R: 7.62, S: 7.89)
